- Tested on: HCI11 (cells of an ER-positive luminal breast cancer xenograft);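 also: PDX cells carrying CMV promoter-driven luciferase, viability read as total photon flux per second by IVIS imaging following D-luciferin, vehicle control 0.1% DMSO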
- protocolText: cell viability (% of vehicle); higher = less cytotoxic
- measurementConditions: 10 µM; 72 h
# reported cell viability; entries follow
reportedProperty: cell viability

{"columns": ["compound", "systemUnderTest", "reportedProperty", "valueMeasured"],
 "data": [
  ["CCC(=C(CC)c1ccc(O)cc1)c1ccc(O)cc1", "HCI11", "cell viability", 75.5],
  ["CC(C(=O)O)c1ccc2c(c1)Cc1cccnc1O2 (configuration not stated)", "HCI11", "cell viability", 78.6],
  ["NS(=O)(=O)NCC/N=C1\\NON\\C1=C(\\N=O)Nc1ccc(F)c(Br)c1", "HCI11", "cell viability", 96.4],
  ["CNCC(O)C(O)C(O)C(O)CO (configuration not stated)", "HCI11", "cell viability", 74.4],
  ["CN(C)CCC=C1c2ccccc2COc2ccc(CC(=O)O)cc21.Cl [Olopatadine HCl]", "HCI11", "cell viability", 97.6],
  ["OC(Cn1cncn1)(Cn1cncn1)c1ccc(F)cc1F", "HCI11", "cell viability", 94.2],
  ["Cc1cc(C2CCCCC2)n(O)c(=O)c1.NCCO", "HCI11", "cell viability", 69.4],
  ["COc1cc(OC)c(C(=O)CCCN2CCCC2)c(OC)c1.Cl [Buflomedil HCl]", "HCI11", "cell viability", 94.4],
  ["c1cn2cc(-c3ccc4cn[nH]c4c3)nc(Nc3ccc(N4CCOCC4)cc3)c2n1", "HCI11", "cell viability", 125],
  ["FC(F)(F)c1ccc(C=Cc2nc(COc3ccc(CCCCn4ccnn4)cc3)co2)cc1", "HCI11", "cell viability", 62.2],
  ["CN1CCN(c2nc(C3=C(c4c[nH]c5ccccc45)C(=O)NC3=O)c3ccccc3n2)CC1", "HCI11", "cell viability", 136],
  ["Clc1ccc(COC(Cn2ccnc2)c2ccc(Cl)cc2Cl)c(Cl)c1 (configuration not stated)", "HCI11", "cell viability", 82]
]}
